MEASURED ON: T1, corticotropin releasing factor 2 receptor
T1 sequence (Q13324 whole entry, species assumed, looked up): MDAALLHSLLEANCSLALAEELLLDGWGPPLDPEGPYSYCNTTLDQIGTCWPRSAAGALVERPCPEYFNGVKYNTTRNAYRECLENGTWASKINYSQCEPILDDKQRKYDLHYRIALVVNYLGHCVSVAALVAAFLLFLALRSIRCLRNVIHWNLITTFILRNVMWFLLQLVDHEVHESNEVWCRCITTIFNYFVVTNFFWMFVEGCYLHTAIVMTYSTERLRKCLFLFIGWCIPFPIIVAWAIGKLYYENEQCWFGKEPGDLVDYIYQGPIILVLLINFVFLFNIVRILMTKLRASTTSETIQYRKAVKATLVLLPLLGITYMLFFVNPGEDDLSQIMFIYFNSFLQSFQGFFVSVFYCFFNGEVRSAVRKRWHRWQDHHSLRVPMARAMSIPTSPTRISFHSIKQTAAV
METHOD: cell-based or functional assay
Listing: CRF2R EC50 of selected binders
Lab book: enter the figure in nM, no units written.

[[record]]
binder = "ZGPPISIDLPWQLLRKMIEIEKQEKEKQQAANNRLLLDTI (C-terminal amide) [SEQ ID NO 210]"
display_unit = "nM"
assay_result = 10.2

[[record]]
binder = "ZGPPISIDLPITLLRKMIEIEKQEKEKQQAANNRLLLDTI (C-terminal amide) [SEQ ID NO 24]"
display_unit = "nM"
assay_result = 43.1

[[record]]
binder = "ZGPPISIDLPAYLLRKMIEIEKQEKEKQQAANNRLLLDTI (C-terminal amide) [SEQ ID NO 32]"
display_unit = "nM"
assay_result = 20.2


Lab note: next binder to report on.
// CRF2R EC50 value for ZGPPISIDLPFQLLRKMIEIEKQEKEKQQATTNARLLARV (C-terminal amide) [SEQ ID NO 23] : 10.2
